Task for the reader: assign each of the following compounds its reported Ratio Ki.
Experiment: Selectivity ratio of Ki for sigma1 receptor in guinea pig brain cortex membranes to Ki for recombinant human GluN1A/GluN2B receptor expressed in mouse L(tk-) cell membranes
Type: cell-based

>  <compound>
Nc1ccc2c(c1)C(O)CN(CCCCc1ccccc1)CC2 (stereo not drawn)

>  <Ratio Ki>
> 10

$$$$
>  <compound>
OC1CN(CCCCOc2ccccc2)CCc2ccccc21 (stereo not drawn)

>  <Ratio Ki>
> 41

$$$$

Please look at the following compound next.
Query (compound): O=[N+]([O-])c1ccc2c(c1)C(O)CN(Cc1ccccc1)CC2 (stereo not drawn) ; field requested: Ratio Ki
< 0.3

---

Biological target: Sigma intracellular receptor 2 (Rattus norvegicus, UniProt Q5U3Y7)
Sequence (Q5U3Y7 whole entry): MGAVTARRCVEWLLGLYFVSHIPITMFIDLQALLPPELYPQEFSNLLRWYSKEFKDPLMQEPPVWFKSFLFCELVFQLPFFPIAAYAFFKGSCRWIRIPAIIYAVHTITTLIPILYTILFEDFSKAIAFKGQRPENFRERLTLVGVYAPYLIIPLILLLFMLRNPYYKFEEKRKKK
Assay: Displacement of [3H]DTG from sigma2 receptor in rat liver membranes after 120 mins by microbeta scintillation counting method
pKi: −log10 of the molar value.
Parameter threshold = 7. Response is rule met when pKi meets or exceeds it, else rule not met.

>  <molecule>
O=[N+]([O-])c1ccc2c(c1)C(O)CN(CCCCOc1ccccc1)CC2 (centres undefined)

>  <class>
rule not met

$$$$
>  <molecule>
Nc1ccc2c(c1)C(O)CN(CCCCc1ccccc1)CC2 (centres undefined)

>  <class>
rule not met

$$$$
>  <molecule>
O=C(c1ccccc1)N1CCC(N2CCc3ccccc3C(O)C2)CC1 (centres undefined)

>  <class>
rule not met

$$$$

Decide: is the reported value of pKi for O=[N+]([O-])c1ccc2c(c1)C(O)CN(Cc1ccc(-c3ccccc3)cc1F)CC2 (centres undefined) equal to or greater than 7?
rule not met

Likewise for O=[N+]([O-])c1ccc2c(c1)C(O)CN(CCc1ccccc1)CC2 (centres undefined) ?
rule not met

Likewise for OC1CN(C2CCC(c3ccccc3)CC2)CCc2ccccc21 (mixture of isomers) ?
rule met

Likewise for c1ccc(CCCCCN2CCc3ccccc3CC2)cc1 ?
rule not met

Likewise for OC1CN(Cc2ccc(-c3ccccc3)cc2)CCc2ccccc21 (centres undefined) ?
rule not met

---

# collection of pKi values tested on Sigma non-opioid intracellular receptor 1 (Cavia porcellus)
# Sequence (Q60492 whole entry): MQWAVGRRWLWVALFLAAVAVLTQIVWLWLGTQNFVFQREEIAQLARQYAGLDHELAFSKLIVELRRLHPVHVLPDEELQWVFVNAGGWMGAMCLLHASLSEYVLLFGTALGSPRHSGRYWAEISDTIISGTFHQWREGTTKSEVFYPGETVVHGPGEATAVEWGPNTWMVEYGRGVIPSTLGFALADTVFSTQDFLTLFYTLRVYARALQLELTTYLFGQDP
pKi: −log10 of the molar value.

>  <molecule>
Nc1ccc2c(c1)C(O)CN(CCCCc1ccccc1)CC2 (stereo not drawn)

>  <assay_target>
Sigma non-opioid intracellular receptor 1 (Cavia porcellus)

>  <observation_type>
pKi

>  <result>
< 5.00

$$$$
>  <molecule>
OC1CN(CCCCOc2ccccc2)CCc2ccccc21 (stereo not drawn)

>  <assay_target>
Sigma non-opioid intracellular receptor 1 (Cavia porcellus)

>  <observation_type>
pKi

>  <result>
< 5.00

$$$$

Query (molecule): COc1ccc(C(=O)CCCN2CCc3ccccc3C(O)C2)cc1 (stereo not drawn) ; field requested: pKi
< 5.00

---

Task for the reader: assign each of the following compounds its reported Ki.
Biological target: Sigma intracellular receptor 2 (Rattus norvegicus)
Assay: Displacement of [3H]DTG from sigma2 receptor in rat liver membranes after 120 mins by microbeta scintillation counting method
Assay type: cell membranes, Membrane

>  <compound>
c1ccc(-c2ccc(CN3CCc4ccccc4CC3)cc2)cc1

>  <observation_type>
Ki

>  <result>
120 nM

$$$$

For every listed record, write down its Ki.
1. O=C(CCCN1CCc2ccccc2C(O)C1)c1ccc(F)cc1 (stereo unspecified)
2. OC1CN(CCCCOc2ccccc2)CCc2ccccc21 (stereo unspecified)
3. COc1ccc(C(=O)CCCN2CCc3ccccc3C(O)C2)cc1 (stereo unspecified)
4. O=[N+]([O-])c1ccc2c(c1)C(O)CN(Cc1ccccc1)CC2 (stereo unspecified)
5. c1ccc(CCCCN2CCc3ccccc3CC2)cc1

61 nM
280 nM
1100 nM
4600 nM
35 nM
